Parameter: fold inhibition APC/thrombin. Scope: all listed entries.
# ASSAY_SYSTEM: T1, activated Protein C (APC) (human, UniProt P04070 43-197; P04070 212-461)
# T1 construct: also called human plasma APC
# T1 sequence (P04070 43-197, chain 1 of 2): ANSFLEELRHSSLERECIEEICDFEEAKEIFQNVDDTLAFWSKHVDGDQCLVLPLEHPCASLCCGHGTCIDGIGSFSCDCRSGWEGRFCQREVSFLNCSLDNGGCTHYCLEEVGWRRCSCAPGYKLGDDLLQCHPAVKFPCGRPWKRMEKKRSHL
# T1 sequence (P04070 212-461, chain 2 of 2): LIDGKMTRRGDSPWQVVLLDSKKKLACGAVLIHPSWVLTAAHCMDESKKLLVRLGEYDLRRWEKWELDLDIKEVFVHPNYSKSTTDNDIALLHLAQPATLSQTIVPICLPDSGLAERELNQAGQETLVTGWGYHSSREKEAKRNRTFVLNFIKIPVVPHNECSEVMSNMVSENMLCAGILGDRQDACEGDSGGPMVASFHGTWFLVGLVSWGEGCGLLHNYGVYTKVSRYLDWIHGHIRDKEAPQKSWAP
# ASSAY_DETAILS: ratio of rate constants, APC over thrombin

Consider the worked cases shown below.
| BINDER | fold inhibition APC/thrombin |
| --- | --- |
| A22 WT PCI (other, Serpin; E. coli, SUMO tag removed; also called A22 wild-type (WT) PCI) APSSRRDFTFDLYRALASAAPSQNIFFSPVSISMSLAMLSLGAGSSTKMQILEGLGLNLQKSSEKELHRGFQQLLQELNQPRDGFQLSLGNALFTDLVVDLQDTFVSAMKTLYLADTFPTNFRDSAGAMKQINDYVAKQTKGKIVDLLKNLDSNAVVIMVNYIFFKAKWETSFNHKGTQEQDFYVTSETVVRVPMMSREDQYHYLLDRNLSCRVVGVPYQGNATALFILPSEGKMQQVENGLSEKTLRKWLKMFKKRQLELYLPKFSIEGSYQLEKVLPSLGISNVFTSHADLSGISNHSNIQVSEMVHKAVVEVDESGTRAAAATGTIFTFRSARLNSQRLVFNRPFLMFIVDNNILFLGKVNRP | 0.02 fold |
| FL α1AT Pitts C232S (other, Serpin; E. coli, SUMO tag removed; also called α1-antitrypsin Pittsburgh) SDPQGDAAQKTDTSHHDQDHPTFNKITPNLAEFAFSLYRQLAHQSNSTNIFFSPVSIATAFAMLSLGTKADTHDEILEGLNFNLTEIPEAQIHEGFQELLRTLNQPDSQLQLTTGNGLFLSEGLKLVDKFLEDVKKLYHSEAFTVNFGDTEEAKKQINDYVEKGTQGKIVDLVKELDRDTVFALVNYIFFKGKWERPFEVKDTEEEDFHVDQVTTVKVPMMKRLGMFNIQHSKKLSSWVLLMKYLGNATAIFFLPDEGKLQHLENELTHDIITKFLENEDRRSASLHLPKLSITGTYDLKSVLGQLGITKVFSNGADLSGVTEEAPLKLSKAVHKAVLTIDEKGTEAAGAMFLEAIPRSIPPEVKFNKPFVFLMIEQNTKSPLFMGKVVNPTQK | 0.4 fold |
| A22 P2KP1′K PCI (other, As A22 WT PCI) APSSRRDFTFDLYRALASAAPSQNIFFSPVSISMSLAMLSLGAGSSTKMQILEGLGLNLQKSSEKELHRGFQQLLQELNQPRDGFQLSLGNALFTDLVVDLQDTFVSAMKTLYLADTFPTNFRDSAGAMKQINDYVAKQTKGKIVDLLKNLDSNAVVIMVNYIFFKAKWETSFNHKGTQEQDFYVTSETVVRVPMMSREDQYHYLLDRNLSCRVVGVPYQGNATALFILPSEGKMQQVENGLSEKTLRKWLKMFKKRQLELYLPKFSIEGSYQLEKVLPSLGISNVFTSHADLSGISNHSNIQVSEMVHKAVVEVDESGTRAAAATGTIFTKRKARLNSQRLVFNRPFLMFIVDNNILFLGKVNRP | 9.3 fold |
| FL α1AT Pitts C232S P1′K (other, E. coli, SUMO tag removed; also called P1′K α1AT Pitts; P1′.F9) SDPQGDAAQKTDTSHHDQDHPTFNKITPNLAEFAFSLYRQLAHQSNSTNIFFSPVSIATAFAMLSLGTKADTHDEILEGLNFNLTEIPEAQIHEGFQELLRTLNQPDSQLQLTTGNGLFLSEGLKLVDKFLEDVKKLYHSEAFTVNFGDTEEAKKQINDYVEKGTQGKIVDLVKELDRDTVFALVNYIFFKGKWERPFEVKDTEEEDFHVDQVTTVKVPMMKRLGMFNIQHSKKLSSWVLLMKYLGNATAIFFLPDEGKLQHLENELTHDIITKFLENEDRRSASLHLPKLSITGTYDLKSVLGQLGITKVFSNGADLSGVTEEAPLKLSKAVHKAVLTIDEKGTEAAGAMFLEAIPRKIPPEVKFNKPFVFLMIEQNTKSPLFMGKVVNPTQK | 563 fold |

The record that follows has no fold inhibition APC/thrombin shown yet.
Record request: fold inhibition APC/thrombin value, item A22 P1′K PCI (other, As A22 WT PCI) APSSRRDFTFDLYRALASAAPSQNIFFSPVSISMSLAMLSLGAGSSTKMQILEGLGLNLQKSSEKELHRGFQQLLQELNQPRDGFQLSLGNALFTDLVVDLQDTFVSAMKTLYLADTFPTNFRDSAGAMKQINDYVAKQTKGKIVDLLKNLDSNAVVIMVNYIFFKAKWETSFNHKGTQEQDFYVTSETVVRVPMMSREDQYHYLLDRNLSCRVVGVPYQGNATALFILPSEGKMQQVENGLSEKTLRKWLKMFKKRQLELYLPKFSIEGSYQLEKVLPSLGISNVFTSHADLSGISNHSNIQVSEMVHKAVVEVDESGTRAAAATGTIFTFRKARLNSQRLVFNRPFLMFIVDNNILFLGKVNRP 40 fold

Source: patent US20160311887A1
